assay: Dynamic Vapour Sorption (DVS) hygroscopicity; assay type: physicochemical; conditions: XRPD post DVS
quantity: form by XRPD post DVS

[
  {
    "compound": "CCOC(=O)N1CC[C@]2(C1)C[C@@H](N1CCC(c3ccnn3C)CC1)C2.O=C(O)CC(O)(CC(=O)O)C(=O)O [citrate monohydrate salt]",
    "result": "no change in form"
  },
  {
    "compound": "CCOC(=O)N1CC[C@]2(C1)C[C@@H](N1CCC(N3CC(F)(F)C[C@@H]3CO)CC1)C2",
    "result": "no change in form"
  }
]

----------
molecular target: human muscarinic M2 receptor (Homo sapiens, UniProt P08172); assay: cell-based
Sequence (P08172 whole entry): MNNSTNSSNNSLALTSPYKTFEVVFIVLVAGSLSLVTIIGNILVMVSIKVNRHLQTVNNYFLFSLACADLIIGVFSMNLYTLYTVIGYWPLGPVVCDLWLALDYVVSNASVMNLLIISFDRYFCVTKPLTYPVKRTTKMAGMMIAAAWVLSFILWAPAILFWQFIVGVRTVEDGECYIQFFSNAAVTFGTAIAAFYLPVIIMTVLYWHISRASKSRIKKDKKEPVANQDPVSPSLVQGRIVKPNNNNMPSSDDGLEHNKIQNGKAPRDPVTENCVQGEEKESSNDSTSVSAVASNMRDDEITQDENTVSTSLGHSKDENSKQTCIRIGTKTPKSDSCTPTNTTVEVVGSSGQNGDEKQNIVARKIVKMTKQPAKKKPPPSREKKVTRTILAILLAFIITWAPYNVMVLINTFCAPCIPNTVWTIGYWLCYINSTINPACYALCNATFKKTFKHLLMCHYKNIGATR
pEC50: −log10 of the molar value.
List of pEC50 values.
quantity: pEC50

[
  {
    "chem smiles": "CCOC(=O)N1CC[C@]2(C1)C[C@@H](N1CCC(N3CC(F)(F)C[C@@H]3CO)CC1)C2",
    "quantity": "pEC50",
    "result": "< 4.70"
  },
  {
    "chem smiles": "CCOC(=O)N1CC[C@]2(C1)C[C@@H](N1CCC(c3ccnn3C)CC1)C2",
    "quantity": "pEC50",
    "result": "< 4.70"
  }
]

----------
assay: Dynamic Vapour Sorption (DVS) hygroscopicity; type: physicochemical; settings: DVS, classification of Table 1
quantity: hygroscopicity, European Pharmacopoeia classification

[
  {
    "compound": "CCOC(=O)N1CC[C@]2(C1)C[C@@H](N1CCC(c3ccnn3C)CC1)C2.O=C(O)CC(O)(CC(=O)O)C(=O)O [citrate monohydrate salt]",
    "result": "slightly hygroscopic"
  },
  {
    "compound": "CCOC(=O)N1CC[C@]2(C1)C[C@@H](N1CCC(c3ccnn3C)CC1)C2.O=C(O)/C=C/C(=O)O [fumarate salt]",
    "result": "slightly hygroscopic"
  },
  {
    "compound": "CCOC(=O)N1CC[C@]2(C1)C[C@@H](N1CCC(N3CC(F)(F)C[C@@H]3CO)CC1)C2",
    "result": "slightly hygroscopic"
  }
]

----------
target: human muscarinic M3 receptor (Homo sapiens, UniProt P20309); assay: cell-based
Sequence (P20309 whole entry): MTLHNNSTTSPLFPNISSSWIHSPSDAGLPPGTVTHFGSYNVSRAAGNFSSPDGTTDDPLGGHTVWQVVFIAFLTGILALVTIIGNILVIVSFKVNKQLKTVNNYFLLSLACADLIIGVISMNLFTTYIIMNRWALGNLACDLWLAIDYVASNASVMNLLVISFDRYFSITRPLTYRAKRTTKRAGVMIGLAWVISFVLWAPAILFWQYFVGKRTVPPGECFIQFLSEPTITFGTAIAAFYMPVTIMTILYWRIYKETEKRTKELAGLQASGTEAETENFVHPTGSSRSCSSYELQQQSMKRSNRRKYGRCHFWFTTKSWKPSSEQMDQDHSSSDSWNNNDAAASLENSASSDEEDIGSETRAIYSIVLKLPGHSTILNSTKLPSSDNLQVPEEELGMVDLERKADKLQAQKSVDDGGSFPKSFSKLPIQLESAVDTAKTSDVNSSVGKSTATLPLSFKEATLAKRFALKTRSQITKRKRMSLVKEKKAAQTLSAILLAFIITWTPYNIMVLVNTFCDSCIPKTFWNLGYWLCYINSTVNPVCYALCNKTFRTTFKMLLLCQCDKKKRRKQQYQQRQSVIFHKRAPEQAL
pEC50: −log10 of the molar value.
Parameter: pEC50. Scope: all listed entries.

[
  {
    "chem smiles": "CCOC(=O)N1CC[C@]2(C1)C[C@@H](N1CCC(N3CC(F)(F)C[C@@H]3CO)CC1)C2",
    "pEC50": "< 4.70"
  },
  {
    "chem smiles": "CCOC(=O)N1CC[C@]2(C1)C[C@@H](N1CCC(c3ccnn3C)CC1)C2",
    "pEC50": "< 4.70"
  }
]
